Measured values drawn from the supplement of paper PMC9170038 for this set.

Test system: K4 kissing-loop RNA reporter
Assay: apparent KD of K4 kissing-loop reporter; higher = weaker reporter binding
Details: Eterna round: R107; input ligand: theophylline 20 uM
Binary classification by apparent KD of K4 kissing-loop reporter, with 0.2 µM as an inclusive lower bound for 1 (yes); all other cases are 0 (no).

Observe how each entry below is paired with its result.
{"seq-text": "CACCGGACGAAAGAUACCAGUUACUAUAUUAGGGUGCCUUGGCUAGUGAUGUUAGAGAGUAACCCUUGGCAGCUUUGGUACUUAU [theeternabot_exclusion_KL_Theo_B_21]", "label": "1 (yes)"}
{"seq-text": "AAUAAUGGAGUGAUGUUCCAGUAAUGGGAUACCAGACAUGAAAAUGUCCCUUGGCAGCUCAAAGGUCUAGUGAUGUUAGAAAGAA [KL-SSTheo-A5 #Double Kiss]", "label": "1 (yes)"}

Can UGAUACCAGACUGAUACCAGCCACAGAGUCAAAGACUCUGAUAAAGGAACCAGUGAUGUUGGCCCUUGGCAGCAGUCUGGUAUCU [TheoBX 24 #SwitchBubble #StaticStem] be said to have apparent KD of K4 kissing-loop reporter at or above 0.2 µM?
0 (no)

Can GUUUCAGUGAUGUUGGAAGGCGAGCGGGAUACCAGCCAAGACUCAGGCCCUUGGCAGCCCACAUAUCCCACGUAGAUAGUAGCUC [Same State - Theophylline A (Freestyle 14)] be said to have apparent KD of K4 kissing-loop reporter at or above 0.2 µM?
0 (no)

Can CCGCUACCCUCAGGAUAUUAAAUAUUAGUGAUGUUAGUAAACCGAUGGCGAAAGCCAUCGGUAUGUUGAGAAGGGAGGGUAGCGG [whbob_SS_FMNB__2th197] be said to have apparent KD of K4 kissing-loop reporter at or above 0.2 µM?
1 (yes)

====

Tested on: K4 kissing-loop RNA reporter;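 also: bound reporter read as fluorescence of individual clusters on recovered sequencing chips by microscopy, with normalized cluster intensities fitted with a binding model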
Assay: apparent KD of K4 kissing-loop reporter; higher = weaker reporter binding
Conditions: Eterna round: R107; input ligand: FMN 200 uM
# apparent KD of K4 kissing-loop reporter annotations
// return numeric value only (unit: nM, not printed)

Worked set:
{"seq-text": "AUUAAUAUCACGGCCGCCACUGAAUAUUGUUUUUAUAUUUAGAAUAAUUGCCAGUGAUGUUGGAUCAGGACCGGGUGAUUUUAUA [JR_SSTryptoB_Sub008]", "result-units": "nM", "apparent KD of K4 kissing-loop reporter": 775}
{"seq-text": "AGGGUUUAGGACGAUACCAGCCUGGAGGCCAGUGAUGUUGGCCGAUUUGAACAGAAUUAAGGCCCUUGGCAGCGUAUCUAAAACC [Esamaza]", "result-units": "nM", "apparent KD of K4 kissing-loop reporter": 280}
{"seq-text": "AUUCGCAGUGAUGUUGCGAUUCCGUUGAGGGAGGAUAUUGGUAAUACAAGAAGGCCCGGCUGCGGGUGAUGUUCGCAUUAGGGCC [Exclusion FMN A GF18]", "result-units": "nM", "apparent KD of K4 kissing-loop reporter": 151}
{"seq-text": "UAUUUGAUGUCAGGAUAUCGUAUACGAGUGAUGUUCGUAUUUCUACUAUAGAUUAUUUAAAUUUUUCGAGAAGGGACAACAUUUA [#04 K4 FMN B Same State]", "result-units": "nM", "apparent KD of K4 kissing-loop reporter": 151}
{"seq-text": "AAUAAAAUCACGGCCGCCACUGAUGCUAAUAUUAGCAGUGAUGUUGCUAUGUAUAUUUUAUUUAACAGGACCGGGUGAAUAUUUA [JR_ExcTryptoB_Sub014]", "result-units": "nM", "apparent KD of K4 kissing-loop reporter": 225}

Let us examine a further case.
`UGACUGGACUGAAGGAGCGCGCGAGACAAAGUCUCGAACUCGUAGUGAUGUUAGGAAAUAACGCAGGUAGGUCGCAGUCUAGUCU` yielded apparent KD of K4 kissing-loop reporter of 651
